Hey, just so you know, these numbers are from patent US20150232562A1.

# assay.target: T1, recombinant human ErbB2/Fc chimera (human, UniProt P04626 23-652)
# T1 construct: bought from R&D Systems; also called rhErbB2-Fc; rhErb2-Fc; Fc part of the bought chimera not given; not described
# test.description: SPR (Biacore T100), Nanobody over immobilised rhErbB2-Fc

binder	koff, s⁻¹
DUMMY-35GS-2D3 (bispecific antibody, C-term myc-His6 tag; also called dummy-2D3; Dummy-2D3) EVQLVESGGGLVQAGGSLRLSCAASGRTFRSYPMGWFRQAPGKEREFVASITGSGGSTYYADSVKGRFTISRDNAKNTVYLQMNSLRPEDTAVYSCAAYIRPDTYLSRDYRKYDYWGQGTQVTVSSGGGGSGGGGSGGGGSGGGGSGGGGSGGGGSGGGGSEVQLVESGGSLVQPGGSLRLSCAASGFTFDDYAMSWVRQVPGKGLEWVSSINWSGTHTDYADSVKGRFTISRNNANNTLYLQMNSLKSEDTAVYYCAKNWRDAGTTWFEKSGSAGQGTQVTVSS	0.00113
DUMMY-35GS-47D5 (bispecific antibody, control: dummy Nanobody fused N-terminally to 47D5; C-term myc-His6 tag; also called Dummy-47D5) EVQLVESGGGLVQAGGSLRLSCAASGRTFRSYPMGWFRQAPGKEREFVASITGSGGSTYYADSVKGRFTISRDNAKNTVYLQMNSLRPEDTAVYSCAAYIRPDTYLSRDYRKYDYWGQGTQVTVSSGGGGSGGGGSGGGGSGGGGSGGGGSGGGGSGGGGSEVQLVESGGGLVQPGGSLRLSCAASGSIFGFNDMAWYRQAPGKQRELVALISRVGVTSSADSVKGRFTISRVNAKDTVYLQMNSLKPEDTAVYYCYMDQRLDGSTLAYWGQGTQVTVSS	0.000869
47D5 (VHH, C-term myc-His6 tag; also called 47A8; 47A11) VHH: KVQLVESGGGLVQPGGSLRLSCAASGSIFGFNDMAWYRQAPGKQRELVALISRVGVTSSADSVKGRFTISRVNAKDTVYLQMNSLKPEDTAVYYCYMDQRLDGSTLAYWGQGTQVTVSS	0.000862
2D3 (VHH, C-term myc-His6 tag; also called NB-2D3; Nb-2D3) VHH: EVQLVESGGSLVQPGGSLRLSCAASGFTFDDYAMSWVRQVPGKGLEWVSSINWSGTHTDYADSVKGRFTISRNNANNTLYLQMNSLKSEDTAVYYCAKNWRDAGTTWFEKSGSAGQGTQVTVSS	0.00148
